Value source: patent EP4653444A1

experimental.system: FLT3 (Homo sapiens)
Sequence (P36888 27-993): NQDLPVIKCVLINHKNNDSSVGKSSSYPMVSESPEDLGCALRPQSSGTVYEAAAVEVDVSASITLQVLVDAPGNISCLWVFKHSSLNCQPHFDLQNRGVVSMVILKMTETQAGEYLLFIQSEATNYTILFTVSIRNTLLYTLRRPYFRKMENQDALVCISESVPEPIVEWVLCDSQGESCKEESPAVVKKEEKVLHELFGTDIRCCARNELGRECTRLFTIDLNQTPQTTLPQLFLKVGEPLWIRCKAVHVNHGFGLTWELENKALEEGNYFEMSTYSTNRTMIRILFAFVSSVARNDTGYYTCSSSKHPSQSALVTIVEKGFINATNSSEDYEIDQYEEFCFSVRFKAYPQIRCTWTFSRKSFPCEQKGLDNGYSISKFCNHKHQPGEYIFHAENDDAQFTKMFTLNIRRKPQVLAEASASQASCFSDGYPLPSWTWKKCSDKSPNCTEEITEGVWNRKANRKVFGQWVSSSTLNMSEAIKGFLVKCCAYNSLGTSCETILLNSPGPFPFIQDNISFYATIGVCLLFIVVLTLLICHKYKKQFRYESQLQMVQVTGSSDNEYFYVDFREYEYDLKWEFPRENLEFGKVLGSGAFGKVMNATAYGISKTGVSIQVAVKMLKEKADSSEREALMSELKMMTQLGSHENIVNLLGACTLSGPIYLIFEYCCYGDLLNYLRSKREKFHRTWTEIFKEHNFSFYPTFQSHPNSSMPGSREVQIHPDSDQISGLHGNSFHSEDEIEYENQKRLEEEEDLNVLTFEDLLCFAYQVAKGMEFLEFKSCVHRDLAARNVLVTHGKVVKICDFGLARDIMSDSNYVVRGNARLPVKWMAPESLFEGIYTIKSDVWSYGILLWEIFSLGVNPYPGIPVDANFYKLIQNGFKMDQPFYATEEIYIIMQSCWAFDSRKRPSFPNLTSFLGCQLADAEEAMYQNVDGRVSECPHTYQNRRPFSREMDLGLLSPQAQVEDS
method.description: FLT3 kinase activity inhibition assay (Mobility shift assay)
Type: biochemical
run.conditions: Table 3; read-out: FLT3 (IC50)
pIC50: −log10 of the molar value.
metric: pIC50

Which measured pIC50 value corresponds to COc1cc2c(cc1Nc1ncc(Cl)c(Nc3ccccc3S(=O)(=O)C(C)C)n1)OC[C@@H]1CN(C3CCOCC3)CCN21 [Compound C1S] ?
> 7.52

---

experimental.system: ALK kinase (Homo sapiens, UniProt Q9UM73)
Sequence (Q9UM73 19-1620): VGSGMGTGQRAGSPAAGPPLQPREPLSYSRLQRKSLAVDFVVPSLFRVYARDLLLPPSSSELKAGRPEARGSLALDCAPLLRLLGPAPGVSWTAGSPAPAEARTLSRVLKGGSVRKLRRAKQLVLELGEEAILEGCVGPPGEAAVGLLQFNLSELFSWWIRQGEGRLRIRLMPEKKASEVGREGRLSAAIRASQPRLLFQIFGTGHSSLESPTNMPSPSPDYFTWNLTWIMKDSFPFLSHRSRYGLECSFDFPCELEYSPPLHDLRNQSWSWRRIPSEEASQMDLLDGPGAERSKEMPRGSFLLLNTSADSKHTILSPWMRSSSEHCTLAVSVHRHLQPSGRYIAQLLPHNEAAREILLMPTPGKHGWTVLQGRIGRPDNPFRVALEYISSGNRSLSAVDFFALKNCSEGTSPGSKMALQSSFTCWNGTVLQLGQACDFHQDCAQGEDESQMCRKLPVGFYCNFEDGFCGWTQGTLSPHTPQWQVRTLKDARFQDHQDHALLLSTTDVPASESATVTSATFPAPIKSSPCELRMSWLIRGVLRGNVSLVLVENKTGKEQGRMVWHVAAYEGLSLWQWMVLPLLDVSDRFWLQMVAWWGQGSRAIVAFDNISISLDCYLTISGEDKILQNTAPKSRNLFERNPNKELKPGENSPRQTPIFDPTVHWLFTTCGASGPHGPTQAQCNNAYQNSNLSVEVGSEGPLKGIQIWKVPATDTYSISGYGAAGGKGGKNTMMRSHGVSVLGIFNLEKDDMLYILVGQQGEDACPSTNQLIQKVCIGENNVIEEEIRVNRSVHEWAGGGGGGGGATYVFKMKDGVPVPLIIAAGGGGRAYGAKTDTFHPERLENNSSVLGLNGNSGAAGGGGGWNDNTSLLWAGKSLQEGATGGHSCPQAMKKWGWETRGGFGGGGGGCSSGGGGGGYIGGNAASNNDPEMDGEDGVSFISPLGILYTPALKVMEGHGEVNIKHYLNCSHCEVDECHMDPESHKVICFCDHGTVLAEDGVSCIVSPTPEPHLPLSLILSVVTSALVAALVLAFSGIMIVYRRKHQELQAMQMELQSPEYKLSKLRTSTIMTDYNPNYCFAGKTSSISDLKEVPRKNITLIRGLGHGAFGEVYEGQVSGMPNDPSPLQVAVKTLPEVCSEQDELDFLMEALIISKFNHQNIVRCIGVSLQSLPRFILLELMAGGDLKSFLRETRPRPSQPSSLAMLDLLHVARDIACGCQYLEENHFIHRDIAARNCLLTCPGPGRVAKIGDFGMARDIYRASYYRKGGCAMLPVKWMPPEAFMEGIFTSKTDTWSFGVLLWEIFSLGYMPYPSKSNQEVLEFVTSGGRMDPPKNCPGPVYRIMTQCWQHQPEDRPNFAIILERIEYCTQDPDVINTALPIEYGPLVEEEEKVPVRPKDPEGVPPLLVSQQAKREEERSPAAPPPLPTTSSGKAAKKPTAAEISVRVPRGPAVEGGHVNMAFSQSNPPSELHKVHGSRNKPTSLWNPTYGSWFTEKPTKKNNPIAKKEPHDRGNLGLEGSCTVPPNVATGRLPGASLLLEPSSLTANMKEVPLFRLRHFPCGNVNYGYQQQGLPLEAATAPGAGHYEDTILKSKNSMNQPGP
method.description: ALK kinase activity inhibition assay (HTRF)
Assay type: biochemical
run.conditions: Table 4; ATP 2 µM; read-out: ALK (IC50)
Protocol: Measure compound inhibitory activity against ALK kinase using HTRF Assay.1× kinase reaction buffer was prepared. The kinase reaction conditions were as follows: kinase concentration at 0.04 ng/µL; ATP working concentration in substrate mixture solution at 2 µM; final substrate concentration at 1 µM. […] Fluorescence signals were measured at 615 nm (Cryptate) and 665 nm (XL665) using a BMG microplate reader. The ratio for each well was calculated as: Ratio_665/615nm. […]
pIC50: −log10 of the molar value.
Listing: pIC50 of selected compounds

Which measured pIC50 value corresponds to CNC(=O)c1ccccc1Nc1cc(Nc2cc3c(cc2OC)N2CCN(C4CCN(C)CC4)C[C@H]2CO3)ncc1C(F)(F)F [Compound D2S] ?
> 7.82

Which measured pIC50 value corresponds to CNC(=O)c1ccccc1Nc1cc(Nc2cc3c(cc2OC)N2CCN(C4CN(C)C4)C[C@H]2CO3)ncc1C(F)(F)F [Compound D4S] ?
> 7.82

---

method.description: Pharmacokinetic study in rats
run.conditions: rat, plasma, po, 3 mg/kg
Listing: AUC(0-t) at 24 h of selected molecules
Record the value in ng·h/mL, omitting the unit from your answer.

Recorded AUC(0-t) at 24 h, per entry:
>  <molecule>
COc1cc2c(cc1Nc1ncc(C(F)(F)F)c(CCc3ccccc3CC(N)=O)n1)OC[C@H]1CN(C3CCN(C)CC3)CCN21

>  <AUC(0-t) at 24 h / ng·h/mL>
880

$$$$
>  <molecule>
CCc1cc2c(cc1Nc1ncc(C(F)(F)F)c(NCCCN3CCOCCC3=O)n1)OC[C@H]1CN(C3CCOCC3)CCN21

>  <AUC(0-t) at 24 h / ng·h/mL>
1040

$$$$
>  <molecule>
CNC(=O)c1ccccc1Nc1cc(Nc2cc3c(cc2OC)N2CCN(C4CCN(C)CC4)C[C@H]2CO3)ncc1C(F)(F)F

>  <AUC(0-t) at 24 h / ng·h/mL>
1470

$$$$
>  <molecule>
COc1cc2c(cc1Nc1ncc(Cl)c(Nc3cccnc3N3CCCC3=O)n1)OC[C@H]1CN(C3CCN(C4CC4)CC3)CCN21 [Compound E10R]

>  <AUC(0-t) at 24 h / ng·h/mL>
2000

$$$$
>  <molecule>
CCN1CCC(N2CCN3c4cc(OC)c(Nc5ncc(Cl)c(Nc6cccnc6N6CCCC6=O)n5)cc4OC[C@H]3C2)CC1

>  <AUC(0-t) at 24 h / ng·h/mL>
1200

$$$$
>  <molecule>
COc1cc2c(cc1Nc1ncc(Cl)c(Nc3cccnc3N3CCCC3=O)n1)OC[C@H]1CN(C3CCN(C(C)=O)CC3)CCN21 [Compound E11R]

>  <AUC(0-t) at 24 h / ng·h/mL>
8110

$$$$

Which measured AUC(0-t) at 24 h value corresponds to "COc1cc2c(cc1Nc1ncc(Cl)c(Nc3ccccc3S(=O)(=O)C(C)C)n1)OC[C@@H]1CN(C3CCN(C)CC3)CCN21" ?
1970

Which measured AUC(0-t) at 24 h value corresponds to "COc1cc2c(cc1Nc1ncc(C(F)(F)F)c(CCc3ccccc3CC(N)=O)n1)OC[C@H]1CN(C3CCOCC3)CCN21" ?
568

Which measured AUC(0-t) at 24 h value corresponds to "CCc1cc2c(cc1Nc1ncc(C(F)(F)F)c(NCCCN3CCOCCC3=O)n1)OC[C@@H]1CN(C3CCN(C)CC3)CCN21" ?
98

Which measured AUC(0-t) at 24 h value corresponds to "CCc1cc2c(cc1Nc1ncc(C(F)(F)F)c(NCCCN3CCOCCC3=O)n1)OC[C@H]1CN(C)CCN21" ?
326

Which measured AUC(0-t) at 24 h value corresponds to "COc1cc2c(cc1Nc1ncc(C(F)(F)F)c(CCc3ccccc3CC(N)=O)n1)OC[C@H]1CN(C3CC3)CCN21" ?
905

Which measured AUC(0-t) at 24 h value corresponds to "COc1cc2c(cc1Nc1ncc(C(F)(F)F)c(CCc3ccccc3CC(N)=O)n1)OC[C@H]1CN(C(C)=O)CCN21" ?
1430

Which measured AUC(0-t) at 24 h value corresponds to "CNC(=O)c1ccccc1Nc1cc(Nc2cc3c(cc2OC)N2CCN(C4CCOCC4)C[C@H]2CO3)ncc1C(F)(F)F" ?
11000

Which measured AUC(0-t) at 24 h value corresponds to "COc1cc2c(cc1Nc1ncc(Cl)c(Nc3cccnc3N3CCCC3=O)n1)OC[C@H]1CN(C3CCOCC3)CCN21" ?
83.9
